Target: T1, human CD200R1 expressed on cells (Jurkat-CD200R1, U937-CD200R1, HH cells) (human, UniProt Q8TD46 25-348)
T1 construct: whole, on cells; also called HH (CRL-2105); cell surface-expressed CD200R1
T1 sequence (looked up): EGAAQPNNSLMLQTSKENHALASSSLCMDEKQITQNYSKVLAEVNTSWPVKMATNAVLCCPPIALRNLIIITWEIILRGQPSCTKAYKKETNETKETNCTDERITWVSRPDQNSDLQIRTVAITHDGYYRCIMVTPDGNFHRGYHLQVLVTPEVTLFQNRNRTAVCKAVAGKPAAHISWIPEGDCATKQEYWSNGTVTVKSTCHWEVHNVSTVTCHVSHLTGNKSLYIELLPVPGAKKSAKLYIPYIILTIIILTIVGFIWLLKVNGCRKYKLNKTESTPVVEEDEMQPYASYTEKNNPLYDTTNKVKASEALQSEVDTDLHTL
Assay: flow cytometry, HH cells; drawn table

| binder | units text | Geo mean (%) at 200 nM |
| --- | --- | --- |
| P001018 scFv mutant L3-L94S (scFv) scFv: QVQLVQSGAEVKKPGASVKVSCKASGYTFTSYVMHWVRQAPGQGLEWMGYINPYNDDTNYNEKFKGRVTMTRDTSTSTVYMELSSLRSEDTAVYYCAREDYYGSRWGYWGQGTLVTVSSGGGGSGGGGSGGGGSDIVLTQSPASLAVSPGQRATITCRASKSVSTSGYSYMHWYQQKPGQPPKLLIYLASNLESGVPARFSGSGSGTDFTLTINPVEANDTANYYCQHSRESLTFGQGTKVEIK | % | 98.7 |

All values here come from patent US20260263521A1.
